Value source: paper PMC12518639

# Test system: THP-1-HMGB1-Lucia cells
# ASSAY NAME: TBZ-induced necroptosis screening by HMGB1-luciferase release
# Type: cell-based, human
# CONDITION LABEL: Homo sapiens; 20 μM compound with TBZ, 8 h; TBZ alone = 100, DPBS = 0; read-out: % Inhibition (luciferase activity relative to TBZ-treated supernatant)
Structures can show the parent of a compound that is named as a salt.
Classification field: condition met = activity at 20 µM at or over 8%; condition not met = activity at 20 µM under 8%.

Some solved cases for reference:
O=c1ncn2nc(Sc3ccc(F)cc3F)ccc2c1-c1c(Cl)cccc1Cl [S2, Neflamapimod]    condition not met
COC(=O)C1=C(C)NC(C)=C(C(=O)OCCN(C)Cc2ccccc2)C1c1cccc([N+](=O)[O-])c1 (stereo not drawn) [S60, Nicardipine hydrochloride]    condition not met

Input: Please tell me: is the compound CC(=O)Oc1ccccc1C(=O)Nc1ncc([N+](=O)[O-])s1 [S15, Nitazoxanide] at or over 8% in terms of activity at 20 µM?
Output: condition not met

Input: Answer whether activity at 20 µM of COCCOC(=O)C1=C(C)NC(C)=C(C(=O)OC/C=C/c2ccccc2)C1c1cccc([N+](=O)[O-])c1 (stereo not drawn) [S63, Cilnidipine] is greater than or equal to 8%.
Output: condition met

Input: Please tell me: is the compound C=C1C(=O)O[C@@H]2/C=C(\C)CC/C=C(\C)CC[C@@H]12 [S35, Costunolide] at or over 8% in terms of activity at 20 µM?
Output: condition met

Input: Is activity at 20 µM at least 8%? Consider CCCCC1C(=O)N(c2ccccc2)N(c2ccc(O)cc2)C1=O (stereo not drawn) [S4, Oxyphenbutazone]
Output: condition not met

Input: Please indicate if the recorded activity at 20 µM for COc1cccc2c1C(=O)c1c(O)c3c(c(O)c1C2=O)C[C@@](O)(C(=O)CO)C[C@@H]3O[C@H]1C[C@H](N)[C@H](O)[C@H](C)O1 [S66, Doxorubicin] meets or exceeds 8%.
Output: condition met
